Parameter: T/C. Scope: all listed entries.
- Tested on: BDF1 mice, P388 leukemia ip, median survival T/C
- assayOverview: NCI In Vivo Anticancer Drug Screen. Data for tumor model P388 Leukemia (intraperitoneal) in B6D2F1 (BDF1) mice
- details: endpoint: median survival time; dose: 50.0 mg/kg/injection; schedule: Q01DX009 (ip); vehicle: saline; higher = longer survival
- Protocol: The antitumor activity of compounds was measured in mice bearing transplantable tumors. Survival or tumor size were measured and the results are expressed as the measurement made in the treated group (T) divided by the measurement made in the vehicle treated control group (C). The tumor model used in this assay is P388 Leukemia (intraperitoneal) in B6D2F1 (BDF1) mice
Inconclusive results and toxic doses are left out.

- smiles: "COc1cc([N+](=O)[O-])c(C)cc1NCc1ccc(OC)c(OC)c1"
  T/C: "99 % of control"
- smiles: "Cc1cc(NC(=O)NCCOc2ccc(N3C(N)=NC(N)=NC3(C)C)cc2Cl)ccc1S(=O)(=O)F"
  T/C: "122 % of control"
- smiles: "O=C(Oc1ccc([N+](=O)[O-])cc1)c1ccc(CBr)cc1"
  T/C: "100 % of control"
